- experimentalSystem: HLA-B*39:06
- assayProcedure: IEDB peptide-MHC binding, purified MHC/competitive/radioactivity; filed as Kd, often an IC50 or EC50 that approximates it; bounds were set here for any values at or beyond the usual limits of such assays
- details: source organism: Homo sapiens
measuredAttribute: log10 of Kd (log10 of the value in nM)

[[record]]
sequencechain = "NRVMLPKA"
reportedresult = 1.61

[[record]]
sequencechain = "TNLFLFLFAV"
reportedresult = 2.55

[[record]]
sequencechain = "YHFLQIPT"
reportedresult = 2.18

[[record]]
sequencechain = "FLFLFAVG"
reportedresult = 2.61

[[record]]
sequencechain = "WMRLLPLLA"
reportedresult = 2.19

[[record]]
sequencechain = "SHVAVENAL"
reportedresult = 2.84

[[record]]
sequencechain = "FRLLCALTSL"
reportedresult = 0.87

[[record]]
sequencechain = "NRVMLPKAA"
reportedresult = 1.15

[[record]]
sequencechain = "THFPHQVIL"
reportedresult = 3.41

[[record]]
sequencechain = "MRLLPLLA"
reportedresult = 1.61

[[record]]
sequencechain = "SASIPLTVVA"
reportedresult = 2.49


---

- experimentalSystem: HLA-B*39:01
- assayProcedure: IEDB peptide-MHC binding, purified MHC/competitive/radioactivity; filed as Kd, often an IC50 or EC50 that approximates it; bounds were set here for any values at or beyond the usual limits of such assays
- details: source organism: Homo sapiens
pKd: −log10 of the molar value.
Quick rule for you: pKd at 6 or higher means yes (1), lower means no (0).

[[record]]
sequencechain = "FRLLCALTSL"
assignedcategory = "yes (1)"

[[record]]
sequencechain = "NHSSPCLEQF"
assignedcategory = "no (0)"

[[record]]
sequencechain = "NRVMLPKAA"
assignedcategory = "yes (1)"

[[record]]
sequencechain = "NRVMLPKA"
assignedcategory = "yes (1)"

[[record]]
sequencechain = "MRLLPLLA"
assignedcategory = "yes (1)"

[[record]]
sequencechain = "TNLFLFLFAV"
assignedcategory = "no (0)"

[[record]]
sequencechain = "SHLVEALYL"
assignedcategory = "no (0)"

[[record]]
sequencechain = "FLFLFAVG"
assignedcategory = "no (0)"

[[record]]
sequencechain = "THFPHQVIL"
assignedcategory = "yes (1)"

[[record]]
sequencechain = "SHVAVENAL"
assignedcategory = "yes (1)"

[[record]]
sequencechain = "SASIPLTVVA"
assignedcategory = "no (0)"


---

- experimentalSystem: HLA-B*38:01
- assayProcedure: IEDB peptide-MHC binding, purified MHC/competitive/radioactivity; filed as Kd, often an IC50 or EC50 that approximates it; bounds were set here for any values at or beyond the usual limits of such assays
- details: source organism: Homo sapiens
measuredAttribute: Kd

[[record]]
sequencechain = "FRLLCALTSL"
reportedresult = "2.76 µM"

[[record]]
sequencechain = "THFPHQVIL"
reportedresult = "0.142 µM"

[[record]]
sequencechain = "FLFLFAVG"
reportedresult = "≥ 50 µM"

[[record]]
sequencechain = "SASIPLTVVA"
reportedresult = "≥ 50 µM"

[[record]]
sequencechain = "SHLVEALYL"
reportedresult = "0.01 µM"

[[record]]
sequencechain = "WMRLLPLLA"
reportedresult = "≥ 50 µM"

[[record]]
sequencechain = "MRLLPLLA"
reportedresult = "≥ 44.5 µM"

[[record]]
sequencechain = "NRVMLPKAA"
reportedresult = "≥ 50 µM"

[[record]]
sequencechain = "YHFLQIPT"
reportedresult = "9.75 µM"

[[record]]
sequencechain = "SHVAVENAL"
reportedresult = "0.321 µM"

[[record]]
sequencechain = "TNLFLFLFAV"
reportedresult = "6.69 µM"

